# System: P. falciparum 3D7
# EXPERIMENTAL_DETAILS: DAPI stain fluorescent high content imaging assay, P. falciparum 3D7 (confirmatory screen, Avery)
# CONDITION_PARAMETERS: Plasmodium falciparum, 3D7, read-out: percent_inh @ 5 uM
Measured inhibition of growth at 5 µM, listed per entry.
Answer in %, number only, no unit symbol.

{"COMPOUND": "CCOc1ccc(CCNC(=O)c2cccs2)cc1OCC", "PROPERTY_NAME": "inhibition of growth at 5 µM", "VALUE_MEASURED": 95}
{"COMPOUND": "CCOC(=O)C1=C(C)N=c2sc(=Cc3cc(Cl)ccc3O)c(=O)n2C1c1ccc(OC)cc1 (stereo not shown)", "PROPERTY_NAME": "inhibition of growth at 5 µM", "VALUE_MEASURED": 97}
{"COMPOUND": "OC(CNC1CCCCC1)Cn1c2ccccc2c2ccccc21 (stereo not shown)", "PROPERTY_NAME": "inhibition of growth at 5 µM", "VALUE_MEASURED": 93}
{"COMPOUND": "COc1ccc(-c2nc3cc(Cc4ccc5[nH]c(-c6ccc(OC)cc6)nc5c4)ccc3[nH]2)cc1", "PROPERTY_NAME": "inhibition of growth at 5 µM", "VALUE_MEASURED": 98}
{"COMPOUND": "CCN(CC)S(=O)(=O)c1ccc(-c2csc(Nc3ccc(C)c(C)c3)n2)cc1", "PROPERTY_NAME": "inhibition of growth at 5 µM", "VALUE_MEASURED": 97}

*Q* Consider the compound CSC1=NC(=Nc2c(C)cccc2C)C2(CCC(C(C)(C)C)CC2)N1c1ccc(Cl)cc1 (stereo not shown) . State its measured inhibition of growth at 5 µM.
*A* 96

*Q* Item O=C(Nc1ccc(Cl)c(Cl)c1)Nc1ccc(Cl)c(Cl)c1 : provide inhibition of growth at 5 µM
*A* 96

*Q* Identify measured inhibition of growth at 5 µM corresponding to COc1ccc(C(C)=O)cc1N1C(=O)C2C(C1=O)C1(c3ccccc3)C(=O)C2(c2ccccc2)C(c2ccc(C)cc2)=C1c1ccc(C)cc1 (stereo not shown)
*A* 96

*Q* Please look at this compound and report its inhibition of growth at 5 µM: CCC(O)c1ccc(Br)cc1NC(=O)c1cccc(Cl)c1 (stereo not shown)
*A* 97

*Q* Determine from records and report inhibition of growth at 5 µM for CC(C)(C)c1ccc(C(=O)Nc2nc3ccccc3s2)cc1
*A* 81

*Q* Tell us which inhibition of growth at 5 µM value is on record for COc1cc2cc(C(=O)Nc3ccccc3)c(N)nc2cc1OC
*A* 99

----------
# Tested on: P. falciparum 3D7
# EXPERIMENTAL_DETAILS: DAPI stain fluorescent high content imaging assay, P. falciparum 3D7 (confirmatory screen, Avery)
# CONDITION_PARAMETERS: Plasmodium falciparum, 3D7, read-out: percent_inh @ 5 uM
PROPERTY_NAME: inhibition of growth at 5 µM (%)
Hi! Could you send only the number? It should be in %, unit omitted.

*Q* Specify reported inhibition of growth at 5 µM for the compound shown: N=c1n(CCN2CCCCC2)c2ccccc2n1CC(O)c1cccc(Br)c1 (stereo not shown)
*A* 98

----------
# Tested on: P. falciparum 3D7
# EXPERIMENTAL_DETAILS: DAPI stain fluorescent high content imaging assay, P. falciparum 3D7 (confirmatory screen, Avery)
# CONDITION_PARAMETERS: Plasmodium falciparum, 3D7, read-out: percent_inh @ 5 uM
PROPERTY_NAME: inhibition of growth at 5 µM (%)
Hi! Could you send only the number? It should be in %, unit omitted.

Previously resolved entries follow.
{"MOLECULE": "CC(C)(C)C(=O)Nc1ccc(C(=O)Nc2cccc(-c3nc4ccccc4[nH]3)c2)cc1", "inhibition of growth at 5 µM / %": 91}
{"MOLECULE": "Cc1ccccc1OCCSc1nc2ccc(NC(=O)c3ccccc3)cc2s1", "inhibition of growth at 5 µM / %": 93}
{"MOLECULE": "FC(F)(F)c1cccc(CNC2CCN(CCc3ccccc3)CC2)c1", "inhibition of growth at 5 µM / %": 96}
{"MOLECULE": "CCOC(=O)c1cn(CC)c2cc(N3CCCCC3)c(F)cc2c1=O", "inhibition of growth at 5 µM / %": 100}

Now let's try a different one.
*Q* Provide only the value of recorded inhibition of growth at 5 µM for OC1CCCCC1C1(NC(=S)Nc2ccccc2)CCCCC1 (centres unmarked)
*A* 59

----------
# Test system: P. falciparum 3D7
# EXPERIMENTAL_DETAILS: DAPI stain fluorescent high content imaging assay, P. falciparum 3D7 (confirmatory screen, Avery)
# CONDITION_PARAMETERS: Plasmodium falciparum, 3D7, read-out: EC50_nM
pEC50: −log10 of the molar value.
Give TRUE when the value for pEC50 is at least 6. Give FALSE when it is less.

{"COMPOUND": "Cc1cc(Nc2ccc(Cl)cc2)n2nc(C(F)(F)F)nc2n1", "CAT": "TRUE"}
{"COMPOUND": "CCC1(C)CC(CCNCc2ccccc2O)(c2ccc(C)cc2)CCO1 (stereo not shown)", "CAT": "TRUE"}
{"COMPOUND": "Cc1ccc(Nc2nc(-c3ccccn3)cs2)cc1", "CAT": "TRUE"}
{"COMPOUND": "O=C(NCC1Cc2cccc(-c3ccncc3)c2O1)c1csc2c1CCCC2 (stereo not shown)", "CAT": "FALSE"}

Switching to the query record.
*Q* Does the compound C[n+]1c2ccccc2nc2ccc(NCCO)cc21 have recorded pEC50 that is 6 or more?
*A* TRUE

----------
Recorded measurements of pEC50, one per entry
# System: P. falciparum 3D7
# EXPERIMENTAL_DETAILS: DAPI stain fluorescent high content imaging assay, P. falciparum 3D7 (confirmatory screen, Avery)
# CONDITION_PARAMETERS: Plasmodium falciparum, 3D7, read-out: EC50_nM
# log scale: pEC50 equals minus log10 of the concentration in mol/L

{"COMPOUND": "Cc1ccc(N2C3c4ccccc4N(S(=O)(=O)c4ccc(C)cc4)C2c2ccccc2N3S(=O)(=O)c2ccc(C)cc2)cc1", "pEC50": 7.61}
{"COMPOUND": "CC(C)c1ccc(CNCC(O)c2ccccc2)cc1 (centres unmarked)", "pEC50": 5.90}
{"COMPOUND": "CCCc1cc(O)c2c3c(c(=O)oc2c1)CN(C)CC3", "pEC50": 6.84}
{"COMPOUND": "COc1ccc(CN2CCN(Cc3ccccc3)CC2)c(O)c1", "pEC50": 5.97}

*Q* Note down pEC50 recorded for COc1cccc(-c2nn(C)c3sc(C(=O)NCCN4CCN(c5ccccc5F)CC4)cc23)c1
*A* 5.89

----------
Reported EC50 values are given for each entry in this list.
# System: P. falciparum 3D7
# EXPERIMENTAL_DETAILS: DAPI stain fluorescent high content imaging assay, P. falciparum 3D7 (confirmatory screen, Avery)
# CONDITION_PARAMETERS: Plasmodium falciparum, 3D7, read-out: EC50_nM
Return type: number; implicit unit nM.

{"COMPOUND": "O=C(Nc1ccc(CN2CCOCC2)cc1)c1ccc(-c2cc(Cl)ccc2Cl)o1", "EC50 / nM": 1940}
{"COMPOUND": "CC(C)CNC(=O)c1c(N)n(CCc2ccccc2F)c2nc3ccccc3nc12", "EC50 / nM": 832}
{"COMPOUND": "CN(C)CCNc1cc(-c2ccccc2)nc2ccccc12", "EC50 / nM": 4000}

*Q* Retrieve EC50 measured for CN(C)c1ccc(C(O)(c2ccc(N(C)C)cc2)c2ccc(N(C)C)cc2)cc1 and print it.
*A* 255

*Q* State its EC50 for this compound: Cc1cc(NCCN2CCCCC2)c2ccc3ccccc3c2n1
*A* 300

*Q* Output EC50 of CCOc1ccc2c(c1)CN(Cc1ccc(Cl)cc1)CO2
*A* 439

*Q* Supply EC50 value. Item: COc1ccc(CCN2CCC(CN(C)Cc3cnn(-c4ccccc4)c3)CC2)cc1
*A* 1430

*Q* Return the recorded EC50 value; entry: COc1ccc(CCN2C(=O)c3[nH]nc(-c4cc(Cl)c(C)cc4O)c3C2c2ccccc2F)cc1 (stereo not drawn)
*A* 916

*Q* Give a short answer stating reported EC50 for CCCc1c(CC)c(=N)c2ccccc2n1C .
*A* 242

----------
# System: P. falciparum 3D7
# EXPERIMENTAL_DETAILS: DAPI stain fluorescent high content imaging assay, P. falciparum 3D7 (confirmatory screen, Avery)
# CONDITION_PARAMETERS: Plasmodium falciparum, 3D7, read-out: EC50_nM
hey, just use condition met if measured EC50 is less than 800 nM, otherwise condition not met

Example entries begin here.
{"COMPOUND": "COc1cccc(NC(=O)Cn2c(C)c(C#N)c3ccccc32)c1", "CAT": "condition not met"}
{"COMPOUND": "CCOC(=O)C1=C(C)N=c2sc(=Cc3ccccc3O)c(=O)n2C1c1ccc(OC)c2ccccc12 (stereo not drawn)", "CAT": "condition not met"}
{"COMPOUND": "COc1ccc2nc(C)cc(Nc3ccccc3O)c2c1", "CAT": "condition met"}
{"COMPOUND": "c1ccc(C2=Nc3ccccc3N=C(c3ccccc3)c3ccccc32)cc1", "CAT": "condition met"}
{"COMPOUND": "Cc1[nH]c(-c2ccc(F)cc2)cc1C(=O)NC1CCN(Cc2ccccc2)CC1", "CAT": "condition met"}
{"COMPOUND": "Cc1ccc(-c2cc3c(SCC(=O)Nc4cc(C(F)(F)F)ccc4Cl)nccn3n2)cc1", "CAT": "condition met"}
{"COMPOUND": "CCOc1ccccc1CN1CCc2nc3cc(C(C)(C)C)nn3c(O)c2C1", "CAT": "condition not met"}
{"COMPOUND": "Nc1ccc(-c2nc3cc(Oc4ccc(Oc5ccc6[nH]c(-c7ccc(N)cc7)nc6c5)cc4)ccc3[nH]2)cc1", "CAT": "condition not met"}

Consider the record given below.
*Q* For this compound, is EC50 lower than 800 nM? Cc1cc(N2CCN(C3CCCC3)CC2)n2c(nc3ccccc32)c1C#N
*A* condition met
